Every entry's value here was drawn from patent US20260078119A1.

- Test system: CAL-51 cells
- METHOD_DESCRIPTION: CAL-51 Cell Proliferation Assay
- Format: cell-based
- MEASUREMENT_SETUP: 120 hours incubation, 10-point dose response, 4-fold dilutions starting at 10 μM, Cell-Titer-Glo, read-out: CAL-51 Prolif EC50
MEASURED_PROPERTY: EC50 (nM)
Write the value in nM as a bare number.

COMPOUND	EC50, nM
CN(C)c1cc(-c2ncc(C#N)cc2Cl)c2c(n1)N(Cc1ccc3c(c1)CN(C1CCC(=O)NC1=O)C3=O)CC2 (centres unmarked)	5.06

Consider now this further compound.
Lookup: Report EC50 for CN(c1cc(-c2ncc(C(F)(F)F)cc2Cl)c2cnn(Cc3ccc4c(c3)CN([C@H]3CCC(=O)NC3=O)C4=O)c2n1)C1CC(O)C1 (some centres unmarked) please.
Found: 2.32
